- TARGET OR TEST SYSTEM: T1, human LAP-TGFB1 Fc fusion (human)
- T1 construct: also called human LAP-TGFβ1-Fc; human LAP-TGFβ-Fc isoform 1
- T1 sequence (chain, as listed by the source limits assumed): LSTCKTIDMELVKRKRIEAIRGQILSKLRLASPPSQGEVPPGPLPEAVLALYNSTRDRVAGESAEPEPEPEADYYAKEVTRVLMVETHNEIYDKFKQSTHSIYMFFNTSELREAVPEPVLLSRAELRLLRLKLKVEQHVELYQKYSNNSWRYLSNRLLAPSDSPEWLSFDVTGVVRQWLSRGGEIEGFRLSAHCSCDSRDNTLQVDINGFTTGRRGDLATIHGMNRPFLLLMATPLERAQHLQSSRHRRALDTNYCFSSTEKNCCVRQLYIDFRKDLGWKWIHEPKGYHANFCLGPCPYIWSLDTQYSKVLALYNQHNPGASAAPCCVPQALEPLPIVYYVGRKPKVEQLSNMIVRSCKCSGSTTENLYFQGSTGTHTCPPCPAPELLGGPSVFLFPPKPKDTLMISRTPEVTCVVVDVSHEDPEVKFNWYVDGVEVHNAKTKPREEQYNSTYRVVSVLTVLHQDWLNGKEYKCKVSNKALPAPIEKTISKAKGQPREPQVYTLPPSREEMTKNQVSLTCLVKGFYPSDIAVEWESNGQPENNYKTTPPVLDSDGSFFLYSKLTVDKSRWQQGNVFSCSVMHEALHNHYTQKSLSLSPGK
- TEST METHOD NOTES: SPR pH 7.4, antigen captured on Fab 54BLH
Entries and their koff values follow.
Give the value, in units of s⁻¹, as a plain number.

These solved cases illustrate the format of a correct answer.
input: Recorded koff of 64BLH (Fab, V domains shown, also called 16BLM Fab) VH: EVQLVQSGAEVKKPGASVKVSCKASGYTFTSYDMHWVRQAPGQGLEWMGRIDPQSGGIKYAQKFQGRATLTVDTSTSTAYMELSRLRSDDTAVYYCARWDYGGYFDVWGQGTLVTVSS VL: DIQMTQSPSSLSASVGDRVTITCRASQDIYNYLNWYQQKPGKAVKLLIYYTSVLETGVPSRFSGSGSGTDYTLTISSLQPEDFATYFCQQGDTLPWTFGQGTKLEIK , please.
output: 0.000939

input: Recorded koff of 07BLM (antibody, human IgG1, kappa, L234A L235A, V domains shown, IgG1 L234A L235A D265S/kappa; also called 70BLH; 43BMD) VH: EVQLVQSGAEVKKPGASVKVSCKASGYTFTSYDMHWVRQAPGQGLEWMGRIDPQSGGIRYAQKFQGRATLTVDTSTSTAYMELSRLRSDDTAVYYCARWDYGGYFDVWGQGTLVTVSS VL: DIQMTQSPSSLSASVGDRVTITCRASQDIYSYLNWYQQKPGKAVKLLIYYTSNLETGVPSRFSGSGSGTDYTLTISSLQPEDFATYFCQQGDTLPWTFGQGTKLEIKR , please.
output: 0.000671

Then this binder:
input: Recorded koff of 18BLM (antibody, human IgG1, kappa, L234A L235A, V domains shown, IgG1 L234A L235A D265S/kappa; also called 81BLH; 54BMD) VH: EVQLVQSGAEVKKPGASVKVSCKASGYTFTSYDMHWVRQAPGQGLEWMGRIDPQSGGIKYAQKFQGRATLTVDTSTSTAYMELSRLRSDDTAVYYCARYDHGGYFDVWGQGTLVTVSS VL: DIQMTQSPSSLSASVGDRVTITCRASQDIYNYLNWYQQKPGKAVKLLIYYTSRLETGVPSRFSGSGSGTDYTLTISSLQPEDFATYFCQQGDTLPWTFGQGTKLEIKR , please.
output: 0.00518
